- assay_system: Trace amine-associated receptor 1 (Homo sapiens) (UniProt Q96RJ0)
- Sequence (Q96RJ0 whole entry, looked up): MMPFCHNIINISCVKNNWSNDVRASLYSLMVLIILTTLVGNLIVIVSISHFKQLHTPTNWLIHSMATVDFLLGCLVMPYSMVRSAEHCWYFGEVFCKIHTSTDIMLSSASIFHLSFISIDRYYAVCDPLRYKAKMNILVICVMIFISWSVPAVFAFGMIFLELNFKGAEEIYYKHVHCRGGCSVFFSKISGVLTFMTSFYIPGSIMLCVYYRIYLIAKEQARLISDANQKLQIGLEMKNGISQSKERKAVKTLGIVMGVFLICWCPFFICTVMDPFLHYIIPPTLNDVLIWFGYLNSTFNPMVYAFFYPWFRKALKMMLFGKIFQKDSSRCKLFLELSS
- protocol_text: activators of TAAR1 calcium mobilization – Fluo-8 calcium fluorescence, CHO RD-HGA16 cells, primary screen (AID 624467)
- applied_conditions: CHO RD-HGA16 TAAR1, Fluo-8 calcium fluorescence; at 3 µM; active compounds read high; vehicle wells 0%, saturating PEA agonist 100%
Hit rate of the full screen: of about 360,000 compounds, about 3,600 (1%) were called active. The sample as a whole holds a higher share of actives than the screen did.
measured_attribute: activation (%)
Hi! Could you send only the number? It should be in %, unit omitted.

-- ask Give the value of activation reported for the following: CCCn1nc2cc(C(=O)NCc3ccccc3)ccc2c1OCC
-- reply 3.65

-- ask Give the value of activation reported for the following: CCN(CC)c1ccc2oc(=O)c(C)nc2c1
-- reply 81

-- ask Give the value of activation reported for the following: Nc1c(C(=O)Nc2ccc3c(c2)OCCO3)nnn1Cc1ccccc1
-- reply 0.57

-- ask Give the value of activation reported for the following: COc1cccc(CNC(=O)c2nnn(CC(=O)Nc3cc(C)ccc3C)c2N)c1
-- reply 2.69

-- ask Give the value of activation reported for the following: CCOc1ccc(Cn2nnc(C(=O)NCc3ccccc3)c2N)cc1
-- reply 83.3

-- ask Give the value of activation reported for the following: CCOc1ccc(Cn2nnc(C(=O)Nc3ccc(OC)cc3OC)c2N)cc1
-- reply 42.5

The reported measurements were obtained from PubChem BioAssay AID624467.
